Each recorded value in this set is attributed to PubChem BioAssay AID1053.

# tgt: Serine/threonine-protein kinase PLK1 (Homo sapiens) (UniProt P53350)
# Sequence (P53350 whole entry, looked up, the tested form may be a part): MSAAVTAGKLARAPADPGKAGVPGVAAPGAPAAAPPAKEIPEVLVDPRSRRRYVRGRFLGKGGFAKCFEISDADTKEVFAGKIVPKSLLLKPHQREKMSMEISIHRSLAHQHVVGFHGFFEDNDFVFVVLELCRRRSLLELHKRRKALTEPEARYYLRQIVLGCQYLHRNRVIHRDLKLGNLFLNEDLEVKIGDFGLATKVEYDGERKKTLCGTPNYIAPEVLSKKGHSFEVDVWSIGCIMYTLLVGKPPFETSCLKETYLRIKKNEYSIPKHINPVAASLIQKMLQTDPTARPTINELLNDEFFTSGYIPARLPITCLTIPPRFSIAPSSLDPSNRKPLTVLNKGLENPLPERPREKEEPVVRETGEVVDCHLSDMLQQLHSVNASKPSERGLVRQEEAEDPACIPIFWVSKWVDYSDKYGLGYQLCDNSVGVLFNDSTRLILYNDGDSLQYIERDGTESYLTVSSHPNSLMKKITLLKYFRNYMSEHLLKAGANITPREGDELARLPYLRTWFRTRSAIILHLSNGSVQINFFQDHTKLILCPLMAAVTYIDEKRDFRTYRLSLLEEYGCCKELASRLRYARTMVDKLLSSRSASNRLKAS
# method: Plk1 polo box domain binding inhibitors, SAR follow-up, biochemical, fluorescence polarization, purchased analogs (AID 1053)
# cond: Plk1 PBD fluorescence polarization peptide binding; at 20 µM; active compounds read high
# inhibition >= -30% gives TRUE, anything below gives FALSE

- molecule: "COc1ccc(C(=O)COC(=O)c2ccc(NC(=O)c3ccccc3)cc2)cc1"
  group_label: "TRUE"
- molecule: "CC1CN(c2cc3nccnc3cc2F)CC(C)O1 (configuration not stated)"
  group_label: "FALSE"
- molecule: "CCOC(=O)c1ccc(N=Cc2c(O)n(Cc3cccs3)c(=O)[nH]c2=O)cc1"
  group_label: "TRUE"
- molecule: "Cn1c(=O)c2nc(-c3ccccc3)c(=O)[nH]c2n(C)c1=O"
  group_label: "FALSE"
- molecule: "CCn1c(N/C(O)=C/C(O)(C(F)(F)F)C(F)(F)F)nc2ccccc21"
  group_label: "FALSE"
- molecule: "CCCCCC(=O)N(CN1C(=O)c2ccccc2C1=O)c1ccc(OCc2ccccc2)cc1"
  group_label: "TRUE"
- molecule: "O=C(COC(=O)c1ccc(NC(=O)c2ccc([N+](=O)[O-])cc2)cc1)c1ccccc1"
  group_label: "TRUE"
- molecule: "CC(=O)Oc1ccccc1N(/C=C1/Sc2ccccc2C1=O)C(C)=O"
  group_label: "FALSE"
- molecule: "CCOC(=O)c1ccc(NC(=O)c2cc(=O)[nH]c3ccccc23)cc1"
  group_label: "FALSE"
- molecule: "CC(=O)N(CN1C(=O)c2ccccc2C1=O)c1ccc(Cl)c(Cl)c1"
  group_label: "FALSE"
- molecule: "Cn1c(=O)[nH]c2nnc(-c3ccc([N+](=O)[O-])cc3)nc2c1=O"
  group_label: "FALSE"
- molecule: "CCOC(=O)c1ccc(NC(=O)C2CCCCC2C(=O)O)cc1 (configuration not stated)"
  group_label: "FALSE"
- molecule: "CC(=O)N(CN1C(=O)c2ccccc2C1=O)c1cc(Br)ccc1C"
  group_label: "FALSE"
- molecule: "CC(=O)N(CN1C(=O)c2cc(Cl)c(Cl)cc2C1=O)c1ccc(C)c(Cl)c1"
  group_label: "FALSE"
- molecule: "CC(=O)N(/N=C1\\Sc2ccccc2C1=O)c1ccccc1[N+](=O)[O-]"
  group_label: "TRUE"
- molecule: "CCOC(=O)c1ccc(NC(=O)c2cncc(Br)c2)cc1"
  group_label: "FALSE"
- molecule: "CCN(CC)CCOC(=O)c1ccc(N=Cc2c(O)n(Cc3ccccc3)c(=O)[nH]c2=O)cc1"
  group_label: "FALSE"
- molecule: "CCCCCOC(=O)c1ccc(NC(=O)c2ccc([N+](=O)[O-])cc2)cc1"
  group_label: "TRUE"
- molecule: "COc1ccc(N(/C=C2\\Sc3ccccc3C2=O)C(C)=O)cc1"
  group_label: "FALSE"
- molecule: "CC(=O)N(CN1C(=O)c2ccccc2C1=O)c1cc(C)ccc1C"
  group_label: "FALSE"
- molecule: "CCCOC(=O)c1ccc(NC(=O)c2ccc(C)c(I)c2)cc1"
  group_label: "TRUE"
